Assay Text: Clinical trial 005, rifalazil concentration in plasma of tuberculosis patients
Type: in vivo, human
Settings: human, plasma, INH + 10 mg KRM; Hour 5; read-out: Rifalazil Concentration in Plasma, Max
Measured Attribute: concentration at 5 h (ng/mL)
Just the number please, in ng/mL, no unit attached.

Query block: Which concentration at 5 h value is on record for CO[C@H]1/C=C/O[C@@]2(C)Oc3c(C)c(O)c4c(=O)c(c5oc6cc(N7CCN(CC(C)C)CC7)cc(O)c6nc-5c4c3C2=O)NC(=O)/C(C)=C\C=C\[C@H](C)[C@H](O)[C@@H](C)[C@@H](O)[C@@H](C)[C@H](OC(C)=O)[C@@H]1C [Rifalazil] ?
Result block: 22.7

----------
Assay Text: Clinical trial 005, rifalazil concentration in plasma of tuberculosis patients
Type: in vivo, human
Settings: human, plasma, 10 mg, INH + 10 mg KRM; Day 11; read-out: Rifalazil Concentration in Plasma, Med
Measured Attribute: concentration at 11 day (ng/mL)
Just the number please, in ng/mL, no unit attached.

Query block: Which concentration at 11 day value is on record for `CO[C@H]1/C=C/O[C@@]2(C)Oc3c(C)c(O)c4c(=O)c(c5oc6cc(N7CCN(CC(C)C)CC7)cc(O)c6nc-5c4c3C2=O)NC(=O)/C(C)=C\C=C\[C@H](C)[C@H](O)[C@@H](C)[C@@H](O)[C@@H](C)[C@H](OC(C)=O)[C@@H]1C` ?
Result block: 1.4

----------
Assay Text: Clinical trial 005, rifalazil concentration in plasma of tuberculosis patients
Type: in vivo, human
Settings: human, plasma, 25 mg, INH + 25 mg KRM; Day 11; read-out: Rifalazil Concentration in Plasma, Min
Measured Attribute: concentration at 11 day (ng/mL)
Just the number please, in ng/mL, no unit attached.

Query block: Which concentration at 11 day value is on record for CO[C@H]1/C=C/O[C@@]2(C)Oc3c(C)c(O)c4c(=O)c(c5oc6cc(N7CCN(CC(C)C)CC7)cc(O)c6nc-5c4c3C2=O)NC(=O)/C(C)=C\C=C\[C@H](C)[C@H](O)[C@@H](C)[C@@H](O)[C@@H](C)[C@H](OC(C)=O)[C@@H]1C [Rifalazil] ?
Result block: 2.2

----------
Assay Text: Clinical trial 005, rifalazil concentration in plasma of tuberculosis patients
Type: in vivo, human
Settings: human, plasma, INH + 25 mg KRM; Hour 48; read-out: Rifalazil Concentration in Plasma, Min
Measured Attribute: concentration at 48 h (ng/mL)
Just the number please, in ng/mL, no unit attached.

Query block: Which concentration at 48 h value is on record for CO[C@H]1/C=C/O[C@@]2(C)Oc3c(C)c(O)c4c(=O)c(c5oc6cc(N7CCN(CC(C)C)CC7)cc(O)c6nc-5c4c3C2=O)NC(=O)/C(C)=C\C=C\[C@H](C)[C@H](O)[C@@H](C)[C@@H](O)[C@@H](C)[C@H](OC(C)=O)[C@@H]1C [Rifalazil] ?
Result block: 0

----------
Assay Text: Clinical trial 005, rifalazil concentration in plasma of tuberculosis patients
Type: in vivo, human
Settings: human, plasma, INH + 10 mg KRM; Hour 48; read-out: Rifalazil Concentration in Plasma, Max
Measured Attribute: concentration at 48 h
Answer with the figure and its unit, nothing else.

Query block: Which concentration at 48 h value is on record for `CO[C@H]1/C=C/O[C@@]2(C)Oc3c(C)c(O)c4c(=O)c(c5oc6cc(N7CCN(CC(C)C)CC7)cc(O)c6nc-5c4c3C2=O)NC(=O)/C(C)=C\C=C\[C@H](C)[C@H](O)[C@@H](C)[C@@H](O)[C@@H](C)[C@H](OC(C)=O)[C@@H]1C` ?
Result block: 2.5 ng/mL

----------
Assay Text: in vivo
Design: species or system rats
Settings: female, rat
Measured Attribute: CL/F (mL/min/kg)
Just the number please, in mL/min/kg, no unit attached.

Query block: Which CL/F value is on record for CO[C@H]1/C=C/O[C@@]2(C)Oc3c(C)c(O)c4c(=O)c(c5oc6cc(N7CCN(CC(C)C)CC7)cc(O)c6nc-5c4c3C2=O)NC(=O)/C(C)=C\C=C\[C@H](C)[C@H](O)[C@@H](C)[C@@H](O)[C@@H](C)[C@H](OC(C)=O)[C@@H]1C [Rifalazil] ?
Result block: 3.62

----------
Assay Text: Clinical trial 005, rifalazil concentration in plasma of tuberculosis patients
Assay type: in vivo, human
Settings: human, plasma, INH + 25 mg KRM; Hour 72; read-out: Rifalazil Concentration in Plasma, Min
Measured Attribute: concentration at 72 h (ng/mL)
Just the number please, in ng/mL, no unit attached.

Query block: Which concentration at 72 h value is on record for CO[C@H]1/C=C/O[C@@]2(C)Oc3c(C)c(O)c4c(=O)c(c5oc6cc(N7CCN(CC(C)C)CC7)cc(O)c6nc-5c4c3C2=O)NC(=O)/C(C)=C\C=C\[C@H](C)[C@H](O)[C@@H](C)[C@@H](O)[C@@H](C)[C@H](OC(C)=O)[C@@H]1C [Rifalazil] ?
Result block: 0
